Experiment: Oral bioavailability in mouse at 50 mg/kg
Type: ADME, organism-based
Conditions: in vivo
assay-readout: bioavailability (%)
Give the number; % is assumed, so skip it.

Query: Dear colleague, I am looking for the recorded bioavailability of the following molecule: O=C1CCc2cc(N3CC[C@](O)(C(=O)NCc4cc(F)cc(Cl)c4)C3=O)ccc2N1
Reply: 100

====

Assay: Clearance in mouse at 0.2 mg/kg, iv
Assay type: ADME, organism-based
Settings: in vivo
assay-readout: clearance (mL/min/kg)
Give the number; mL/min/kg is assumed, so skip it.

Query: Dear colleague, I am looking for the recorded clearance of the following compound: O=C1CCc2cc(N3CC[C@](O)(C(=O)NCc4cc(F)cc(Cl)c4)C3=O)ccc2N1
Reply: 3

====

Assay: Oral bioavailability in mouse at 0.5 mg/kg
Assay type: ADME, organism-based
Settings: in vivo
assay-readout: bioavailability (%)
Give the number; % is assumed, so skip it.

Query: Dear colleague, I am looking for the recorded bioavailability of the following compound: O=C1CCc2cc(N3CC[C@](O)(C(=O)NCc4cc(F)cc(Cl)c4)C3=O)ccc2N1
Reply: 35

====

Assay: Dissociation constant, pKa of compound
Format: physicochemical
assay-readout: pKa

Query: Dear colleague, I am looking for the recorded pKa of the following compound: O=C1CCc2cc(N3CC[C@](O)(C(=O)NCc4cc(F)cc(Cl)c4)C3=O)ccc2N1
Reply: 11

====

Experiment: Lipophilicity, log D of the compound at pH 7.4
Type: physicochemical
Settings: buffer
assay-readout: logD

Query: Dear colleague, I am looking for the recorded logD of the following molecule: O=C1CCc2cc(N3CC[C@](O)(C(=O)NCc4cc(F)cc(Cl)c4)C3=O)ccc2N1
Reply: 2
